- assay_system: T1, human IL-23R-mouse Fc fusion protein (human; mouse, UniProt Q5VWK5 24-353)
- T1 construct: Expressed in FreeStyle 293 cells, purified; immobilized on the ELISA plate at 500 ng/mL; also called human IL-23R-Fc fusion protein; not shown: Fc region of mouse immunoglobulin (IgG2a) as encoded by the vector pFUSE-mIgG2A-Fc2 (InvivoGen); limits and any linker r
- T1 sequence: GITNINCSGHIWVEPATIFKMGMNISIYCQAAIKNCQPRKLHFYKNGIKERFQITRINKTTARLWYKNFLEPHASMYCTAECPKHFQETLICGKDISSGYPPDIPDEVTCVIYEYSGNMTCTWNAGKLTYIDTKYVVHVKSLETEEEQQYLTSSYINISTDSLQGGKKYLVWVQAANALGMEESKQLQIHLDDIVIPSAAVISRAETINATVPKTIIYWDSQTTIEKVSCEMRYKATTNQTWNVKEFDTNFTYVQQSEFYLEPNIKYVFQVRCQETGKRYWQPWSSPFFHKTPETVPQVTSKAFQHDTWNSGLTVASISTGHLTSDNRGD
- experiment_notes: antigen ELISA, human IL-23R-Fc immobilized, HRP anti-mouse Ig, chemiluminescence
experimental_endpoint: EC50 (µg/mL)
Give bare numbers, in µg/mL.

Query :: Field request: EC50 | item: 32-28 (chimeric) (antibody, V domains shown) VH: QVHLVQSGTEVRKPGASVKVSCKVSGYTLNELAIHWVRQAPGKGLEWMGGFDPEHGEIIYAQRFQGRVTLPEDTSTDTAYLDLFNLRSEDTAVYFCATEAAPFDYWGQGTLVIVSS VL: DIQMTQSPSTLSASVGDRVTITCRASQSLSSWLAWYQQKPGKAPKLLIYKASSLESGVPSRFSGSGSGTDFTLTISSLQPDDFATYYCQQYDIYPRTFGQGTKVEIKR
Result :: 0.018

Data origin: patent US20140275490A1
